Values were extracted from PubChem BioAssay AID1259318.

Molecular target: Nuclear receptor subfamily 1 group D member 1 (Homo sapiens) (UniProt P20393)
Sequence (P20393 whole entry, looked up): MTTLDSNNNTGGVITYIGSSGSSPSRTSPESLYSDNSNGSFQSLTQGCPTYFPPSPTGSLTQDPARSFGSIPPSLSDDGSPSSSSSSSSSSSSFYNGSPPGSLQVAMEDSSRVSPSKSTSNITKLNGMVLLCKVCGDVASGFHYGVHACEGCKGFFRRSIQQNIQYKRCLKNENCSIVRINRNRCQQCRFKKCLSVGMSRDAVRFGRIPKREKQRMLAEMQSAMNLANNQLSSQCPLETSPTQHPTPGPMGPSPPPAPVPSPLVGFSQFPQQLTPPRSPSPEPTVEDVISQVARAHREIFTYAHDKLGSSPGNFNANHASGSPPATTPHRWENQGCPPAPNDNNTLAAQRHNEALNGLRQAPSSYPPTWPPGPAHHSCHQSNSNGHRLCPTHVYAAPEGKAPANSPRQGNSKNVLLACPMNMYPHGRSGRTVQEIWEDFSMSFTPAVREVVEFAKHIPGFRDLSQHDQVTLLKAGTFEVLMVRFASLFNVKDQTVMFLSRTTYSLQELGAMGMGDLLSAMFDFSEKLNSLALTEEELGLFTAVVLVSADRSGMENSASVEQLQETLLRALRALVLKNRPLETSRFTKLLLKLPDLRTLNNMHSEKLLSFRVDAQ
Assay: modulators of Rev-erb alpha DNA binding, primary screen, biochemical, FITC-DNA, fluorescence polarization, uHTS (AID 1259318);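 note: 0% = DMSO wells with 35 nM protein and 100% = DMSO wells with 750 nM protein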
Conditions: Rev-erbα–FITC-DNA binding, 90 min, at 10 µM, stronger effect = higher value
Screen size: about 370,000 compounds; about 3,000 (0.81%) were called active. The sample as a whole holds a higher share of actives than the screen did.
Measure: activity (%)
Kindly provide the numeric value in % only, without the unit symbol.

{"Compound": "Clc1ccc2nc(CSc3ccccc3)cn2c1", "Measure unit": "%", "activity": 6.58}
{"Compound": "CCOC(=O)c1c(NC(=O)C2CC=CCC2C(=O)O)sc(C)c1CC (stereo not drawn)", "Measure unit": "%", "activity": -10.6}
{"Compound": "CC(C)NC(=O)COCc1cc(-c2ccc3c(c2)OCO3)on1", "Measure unit": "%", "activity": 3.84}
{"Compound": "CCOC(=O)N1CCN(C(=O)COCc2cc(-c3ccc4c(c3)OCO4)on2)CC1", "Measure unit": "%", "activity": 2.06}
{"Compound": "COc1ccc2sc(-c3ccc(S(C)(=O)=O)cc3)c(-c3ccc(C(N)=O)cc3)c2c1", "Measure unit": "%", "activity": 29.1}

Consider now this further compound.
Input line: Let me know recorded activity for COc1ccc2sc(-c3ccccc3OC)c(-c3ccc(OCCN4CCCC4)cc3)c2c1 , thanks.
Output line: 2.94
